System: cancer cells
method: Survival rate of cancer cells after test compound is added (flow cytometry, Annexin V-FITC/PI, clinical specimen)
Assay type: cell-based, patient
runConditions: Homo sapiens, 18 h, Colorectal cancer; 10.0 μM; read-out: Survival rate (%) All cells (Stem cells and ordinary cells)
For each record, write down the corresponding viability at 10 µM.
The reply should contain only the number, in %.

Given the entry C=C1C(=O)O[C@H]2[C@H]1CCC(C)=C1CC[C@@](C)(OC(=O)CCCc3cn(CCCCCCO)nn3)[C@@H]12 , report its measured viability at 10 µM.
78

Suppose we examine the molecule C=C1C(=O)O[C@@H]2[C@@H]3[C@@H](CC[C@@]3(C)O)[C@](C)(O)CC[C@@H]12 ; what viability at 10 µM value has been reported?
88

Item under review: C=C1CC[C@H]2C(=C)CC[C@H]3C(=C)C(=O)O[C@@H]3[C@@H]12 . Reported viability at 10 µM?
76

Reported viability at 10 µM, molecule CCOC(=O)[C@@H]1CCCN1C[C@@H]1C(=O)O[C@H]2[C@H]1CCC1(CC1)[C@@H]1CCC3(CC3)[C@H]21 : ____
91
